# measurement.description: AUC in rat at 10 mg/kg, po after 24 hrs
# Type: ADME, organism-based
# Design: time < 24 hr, dose 10 mg/kg, route oral
# setup.conditions: plasma
assay.endpoint: AUC at 24 h
Form field: result (number plus unit)

Annotate the compound c1ccc(-c2nn3c(c2-c2ccnc4cc(OCCN5CCOCC5)ccc24)CCC3)nc1 with its measured AUC at 24 h.
1000 ng·h/mL

* * *

# Tested on: Liver microsomes
# measurement.description: Metabolic stability in human liver microsomes
# Type: ADME, Microsome
Threshold 60%: Stability strictly smaller gives Y, otherwise N.

Completed entries (count: 4):
CN1CCN(CCCOc2ccc3c(-c4c(-c5ccccn5)nn5c4CCC5)ccnc3c2)CC1 :: Y
CCN(C)CCOc1ccc2c(-c3c(-c4ccccn4)nn4c3CCC4)ccnc2c1 :: Y
c1ccc(-c2n[nH]cc2-c2ccnc3ccccc23)nc1 :: Y
ClCCOc1ccc2c(-c3c(-c4ccccn4)nn4c3CCC4)ccnc2c1 :: N

Lab note: Stability threshold 60%. Does this compound come in strictly under it? c1ccc(-c2nn3c(c2-c2ccnc4cc(OCCN5CCOCC5)ccc24)CCC3)nc1
Y

# TODO verify Stability < 60% strictly for this compound: c1ccc(-c2nn3c(c2-c2ccnc4cc(OCC5CCCO5)ccc24)CCC3)nc1 (stereo unspecified)
Y

Reference for the values: ChEMBL document CHEMBL1144852
